B1: E3 ubiquitin-protein ligase Midline-1, residues 172 to 214; numbered along this chain, O15344 (parent)
chain: GLMCLEHEDEKVNMYCVTDDQLICALCKLVGRHRDHQVAALSE

- Variants of: B1
- assay-comment: abundance fitness (aPCA) (normalised: wild type 0, dead -1); higher = more abundant; growth selection in yeast, the domain comes from the species named
- condition: Homo sapiens
Measured abundance fitness, listed per entry.
Give a plain numeric answer without units written out.

Examples with their reported abundance fitness follow.
residue-change | numeric-value
C27A | -0.757
C27D | -0.328
L26M | 0.031
R32Q | 0.007

Ask | Look up abundance fitness: D35N
Reply | -0.114

Ask | Look up abundance fitness: C4Q
Reply | -0.314

Ask | Look up abundance fitness: A39N
Reply | 0.401

Ask | Look up abundance fitness: Y15L
Reply | 0.014

Ask | Look up abundance fitness: V38W
Reply | -0.018

Ask | Look up abundance fitness: L5Y
Reply | -0.021

Ask | Look up abundance fitness: C16P
Reply | -0.289

Ask | Look up abundance fitness: S42F
Reply | -0.656

Ask | Look up abundance fitness: Q37L
Reply | -0.338

Ask | Look up abundance fitness: C24P
Reply | -0.977
